# System: Mu-type opioid receptor (Homo sapiens);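 note: U2OS cells expressing OPRM1 and beta-arrestin as split beta-galactosidase partners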
# Sequence (P35372 whole entry): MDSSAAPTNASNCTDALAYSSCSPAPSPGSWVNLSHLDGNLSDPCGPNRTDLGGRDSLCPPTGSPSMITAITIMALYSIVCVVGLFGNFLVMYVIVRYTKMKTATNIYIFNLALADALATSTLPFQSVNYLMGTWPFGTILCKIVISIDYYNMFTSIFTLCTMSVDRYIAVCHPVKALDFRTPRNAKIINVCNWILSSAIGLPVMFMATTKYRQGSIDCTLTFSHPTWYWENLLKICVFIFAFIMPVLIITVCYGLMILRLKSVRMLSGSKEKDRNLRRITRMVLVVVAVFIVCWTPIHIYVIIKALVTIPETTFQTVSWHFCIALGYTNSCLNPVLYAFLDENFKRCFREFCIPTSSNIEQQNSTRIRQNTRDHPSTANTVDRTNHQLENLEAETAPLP
# Assay overview: Counterscreen for agonists of heterodimerization of the mu 1 (OPRM1) and delta 1 (OPRD1) opioid receptors: Luminescence-based cell-based high throughput dose response assay to identify agonists of OPRM1 homodimerization.
# Assay type: functional
Activity calls are given as the source filed them. Cut-off read from the data, not from the text of the source: active = EC50 of 10 µM or less and inactive = more.
Result type: EC50

Give the measured EC50 of Cc1ccc(CC(=O)NCC(c2ccco2)N(C)C)cc1C (centres undefined) . > 92.4 µM (inactive)

Also check `COc1ccc(-c2nn(-c3ccccc3C)cc2CNCc2cccnc2)cc1F` > 92.5 µM (inactive)

Also `CCc1ccc(NC(=O)Nc2ccc3c(c2)N(C)C(=O)CS3)cc1` , if possible. 36.7 µM (inactive)

And what about the molecule CC1CN(C)C(C)c2c1oc1ccc(N)cc21 (centres undefined) ? > 92.5 µM (inactive)
